B1: TMEM192 (parent)
chain: LWILHLLLECYIQYHHSKIRNRGY

Variants of: B1
method: protein stability index of a GFP-peptide fusion (GPS, HEK-293T) (PSI 1-6); higher = more stable;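 further: lentivirally expressed fusions sorted by FACS into six bins by GFP to DsRed ratio, PSI derived from sequencing read proportions per bin multiplied by bin number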
test-parameters: c terminus: a fixed tail appended
metric: protein stability index
Answers are plain numbers.

Record excerpt, results attached:
{"columns": ["changes", "protein stability index"],
 "data": [
  ["I19D", 1.73],
  ["C10E", 1.94],
  ["Y14V", 2.53]
]}

Could I get protein stability index for every one of these entries?
1. G23T
2. L6Q
3. W2S
4. Y11S

output:
[2.78, 1.99, 1.58, 3.45]

Hi there! I need protein stability index for each item below, if you can.
1. I12V
2. C10A
3. Y14S

output:
2.27
2.09
2.47
